B1: LINE1-full (parent)
chain: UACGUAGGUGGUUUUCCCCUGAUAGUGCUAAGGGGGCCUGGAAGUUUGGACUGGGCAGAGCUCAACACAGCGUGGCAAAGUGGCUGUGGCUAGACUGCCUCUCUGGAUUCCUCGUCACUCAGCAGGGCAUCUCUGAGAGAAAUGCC

Variants of: B1
Assay: self-cleavage, relative activity (ratio to wild type); higher = more cleavage; in vitro, sequencing; the parent is a self-cleaving ribozyme
Documented self-cleavage across a set of variants
readout type: self-cleavage

G27U U39C	0.63
U26A A64U	0.23
U115C U119C	2.04
A30U G58A	0.18
G27A A69C	0.11
A6G U119C	0.73
C61U G105A	0.02
A6U U87G	0.12
U102C G127A	1.7
U102A C120U	1.65
G21U U81C	1.01
